# System: E. coli (I364), P. aeruginosa (PAO1), S. aureus (F77)
# Assay type: cell-based
# stated.conditions: 18 h
No end group written: not given here.
result.type: MIC Values Geometric Mean
Dear colleague, please send the value followed by its unit.

Use the examples below as a reference point.
KIRVQRIKDFLR [KR12/32]	13.33 µM
KIRVRIKFR [KR12/32-5911]	3.33 µM
KRIVRIKFR [KR12-5911]	3.5 µM

Please turn your attention to the following entry.
Query: Report MIC Values Geometric Mean for KRIVQRIKDFLR [KR12, reference compound] please.
Reply: 4.0 µM

----------
# Test system: Escherichia coli (E. coli, I364)
# Type: cell-based
# stated.conditions: I364, 18 h
No end group written: not given here.
// reported MIC Values E. coli (I364) per item
The answer is to be given in µM; state only the numeric part.

Consider the following illustrative entries.
KRIVRIKFR [KR12-5911]	0.5
KRIVQRIKDFLR [KR12, reference compound]	2
KIRVQRIKDFLR [KR12/32]	4

Continue with the next sequence.
Query: Quick one: MIC Values E. coli (I364) for KIRVRIKFR [KR12/32-5911] ?
Reply: 4

Values compiled from paper PMC7503509.
